# hERG current change (%, negative = inhibition) at 10uM per entry
target desc: human ether-à-go-go-related gene (hERG) potassium channel (human, UniProt Q12809);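 note: peak tail current of the secondary pulse compared with the same well before compound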
Sequence (Q12809 whole entry, looked up): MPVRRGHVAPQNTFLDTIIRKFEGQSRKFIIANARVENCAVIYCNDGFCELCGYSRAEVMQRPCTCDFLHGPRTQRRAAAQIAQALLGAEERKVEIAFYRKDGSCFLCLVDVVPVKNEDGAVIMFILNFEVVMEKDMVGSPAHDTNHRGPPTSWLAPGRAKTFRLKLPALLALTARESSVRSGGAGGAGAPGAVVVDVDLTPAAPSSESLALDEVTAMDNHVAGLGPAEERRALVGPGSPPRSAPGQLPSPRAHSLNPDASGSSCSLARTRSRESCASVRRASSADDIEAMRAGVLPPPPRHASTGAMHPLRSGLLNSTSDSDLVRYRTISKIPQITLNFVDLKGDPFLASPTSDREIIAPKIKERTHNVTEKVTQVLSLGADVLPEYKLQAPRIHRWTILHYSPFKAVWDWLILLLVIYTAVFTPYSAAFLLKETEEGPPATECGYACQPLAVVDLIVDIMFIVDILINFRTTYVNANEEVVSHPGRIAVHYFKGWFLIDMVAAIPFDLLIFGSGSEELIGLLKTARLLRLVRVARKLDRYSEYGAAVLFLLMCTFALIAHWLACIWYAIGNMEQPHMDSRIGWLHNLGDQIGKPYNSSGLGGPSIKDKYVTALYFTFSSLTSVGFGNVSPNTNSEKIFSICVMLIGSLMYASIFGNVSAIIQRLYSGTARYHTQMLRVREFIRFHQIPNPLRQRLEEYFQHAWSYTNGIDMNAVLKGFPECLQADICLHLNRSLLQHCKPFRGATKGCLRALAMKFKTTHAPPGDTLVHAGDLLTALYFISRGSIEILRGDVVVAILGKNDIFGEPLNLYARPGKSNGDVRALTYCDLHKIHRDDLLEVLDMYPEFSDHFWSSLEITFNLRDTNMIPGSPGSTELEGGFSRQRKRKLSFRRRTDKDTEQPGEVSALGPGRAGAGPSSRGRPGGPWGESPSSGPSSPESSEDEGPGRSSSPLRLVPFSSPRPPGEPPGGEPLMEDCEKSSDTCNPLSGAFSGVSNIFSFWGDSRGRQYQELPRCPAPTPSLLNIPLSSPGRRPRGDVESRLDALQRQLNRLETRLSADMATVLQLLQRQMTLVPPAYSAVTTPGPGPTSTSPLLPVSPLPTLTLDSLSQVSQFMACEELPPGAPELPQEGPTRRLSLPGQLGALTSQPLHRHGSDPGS
test summary: primary screen, population patch clamp on CHO cells stably expressing hERG; higher = less effect of the substance
Method: Briefly, Chinese hamster ovary (CHO) cells stably expressing the hERG channel were dislodged from tissue culture flasks and dispensed into PPC plates. […] During the recording, background leak currents were estimated by a 100 ms step to -80 mV from an initial holding potential of -70 mV and subtracted from the subsequent current measurement. The campaign was conducted in two phases using slight differences in recording protocol. […]
Out of some 310,000 compounds screened, about 14,000 (4.5%) showed an effect of 50% or more. The effect is printed as a negative number. What follows is part of a selection rich in strong results, with near analogues and random picks from the rest.
experimental readout: hERG current change (%, negative = inhibition) at 10uM (%)

compound=Cc1cc(=O)[nH]c(N/N=C/c2c(C)oc3ccccc23)n1 measured_number=-0.943
compound="O=C(NCCCN1CCC(Cc2ccccc2)CC1)C1CCC(=O)N1C1CCCC1 (stereo not drawn)" measured_number=6.52
compound=C/C(O)=C/c1nc2ccccc2[nH]c1=O measured_number=-5.26
compound="COc1ccccc1Nc1nc(N)nc(CSC(=S)N2CCCCC2C)n1 (stereo not drawn)" measured_number=-5.64
compound=CC(C)OC(=O)CSc1nnc2c(n1)[nH]c1ccc(F)cc12 measured_number=8.22
compound=Cc1ccc(C(=O)N[C@H](C(=O)Nc2sccc2C(N)=O)C(C)C)cc1 measured_number=5.47
compound=Cc1ccccc1Nc1nc(N)nc(COC(=O)C2CCCCC2)n1 measured_number=8.35
compound=Cc1[nH]nc2c1C1(CCN(Cc3ccccc3)CC1)C(C#N)=C(N)O2 measured_number=-42
compound=O=C(c1cccnc1Nc1ccccc1F)N1CCOCC1 measured_number=11.7
compound=COc1cc(/C(C)=N/NC(=O)CN2CCN(S(=O)(=O)c3ccc(C)cc3)CC2)ccc1O measured_number=-11.6
compound=NC(=O)COC(=O)c1ccccc1OCc1ccccc1 measured_number=18.3
compound="CCOC(=O)C1CCCN(Cc2nc(N)nc(Nc3ccc(OC)cc3)n2)C1 (stereo not drawn)" measured_number=-75.6
compound="CCC1CCCCN1CCCNC(=O)C1CCCN(c2nn3c(=O)cc(C)nc3s2)C1 (stereo not drawn)" measured_number=12.2
compound="C=C(C)C(=O)Nc1cccc(C2=NOC3(C2)C[C@@H](C(N)=O)N(C(=O)c2cc([N+](=O)[O-])cc([N+](=O)[O-])c2C)C3)c1 (stereo partly drawn)" measured_number=1.96
compound=Cc1cc(=O)oc2cc(NC(=O)c3ccccc3C(=O)O)ccc12 measured_number=15.7
compound=Clc1ccc(SCCOCCN2CCCCC2)cc1.O=C(O)C(=O)O measured_number=-82
compound=CCCCNC(=O)[C@H](Cc1c[nH]c2ccccc12)NC(=O)c1ccccc1Cl measured_number=-8.26
compound=COc1ccc(Cn2c(=O)oc3ccc(C)cc32)cc1 measured_number=1.22
compound=O=C(CCNS(=O)(=O)c1ccccc1C(F)(F)F)N1CCN(c2ccccc2O)CC1 measured_number=-26.9
compound=O=C(CNC(=O)c1cc2c(n(-c3ccccc3)c1=O)CCCC2=O)c1ccccc1 measured_number=-38.5
compound="CCOC(=O)C1CCCN(Cc2nc(N)nc(Nc3ccc(Cl)cc3)n2)C1 (stereo not drawn)" measured_number=-79
